- test_summary: Evaluation of dissolution stability (content change on storage in dissolved state)
- Format: physicochemical
- run_conditions: 1 mg/1 ml dissolved state, 40° C. and RH 75%, initial
*1 amine or outer side, *2 acyl side, *3 side chain or, on linkers, in order; H or OH if unused. Primed or numbered codes have the meaning given here. Where no end group is shown, it is not given here. [ ]: non-standard residue; d: D form. Pro(trans-4-NH2) = O=C([C@@H]1C[C@@H](N[*:3])CN1[*:1])[*:2]; Pro(4-methylene) = C=C1CN[C@H](C(=O)O)C1; Pro(4,4-F2) = O=C(O)[C@@H]1CC(F)(F)CN1; Pro(4,4-Me2) = CC1(C)CN[C@H](C(=O)O)C1; Asu′ = aspartimide (aminosuccinimide); Hyp = O=C(O)[C@@H]1C[C@@H](O)CN1
Record form. Attribute: Initial content (%). Fill in for each entry.
Numbers only, in %.

Hyp-Gly-Gln-Ala-Gly-Leu ([Hyp]GQAGL) [Example 122] ... 98.82
4-methylene-Pro-Gly-Gln-Asp-Gly-Leu-Ala ([Pro(4-methylene)]GQDGLA) [Example 54] ... 95.42
4,4-difluoro-Pro-Gly-Gln-Asp-Gly ([Pro(4,4-F2)]GQDG) [Example 43] ... 99.47
Hyp-Leu-Gln-Asp-Gly ([Hyp]LQDG) [Example 75] ... 98.53
4,4-dimethyl Pro-Gly-Gln-Asp-Gly-Leu-Ala ([Pro(4,4-Me2)]GQDGLA) [Example 57] ... 91.95

Batch: Initial content (%) for all items listed.
1. Hyp-Gly-Gln-His-Gly-Leu ([Hyp]GQHGL) [Example 82]
2. Hyp-Gly-Gln-Asu-Gly ([Hyp]GQ[Asu′]G) [Example 100]
3. QDGLAG [Example 30]
4. trans-4NH2-Pro-Gly-Gln-Asp-Gly-Leu ([Pro(trans-4-NH2)]GQDGL) [Example 47]

Output:
97.54
97.58
96.44
94.90
